# System: MCF-10A
# ASSAY_EXPLANATION: drug sensitivity score (DSS), CellTox Green (DSS (AUC-based score)); higher = stronger drug effect (viability inhibition or cytotoxicity); extreme values may be limits of the assay
# CONDITIONS: incubation time: 72 h
QUANTITY: drug sensitivity score
Reply: number alone, nothing else.

The following molecules have reported results that may help.
CNNCc1ccc(C(=O)NC(C)C)cc1    0
C[C@]12CC[C@H](O)CC1=CC[C@@H]1[C@@H]2CC[C@]2(C)C(c3cccnc3)=CC[C@@H]12    0
O=C1NC(=O)[C@@H](c2cn3c4c(cccc24)CCC3)[C@@H]1c1c[nH]c2ccccc12 [Tivantinib]    0
CC(C)(C#N)c1cc(Cn2cncn2)cc(C(C)(C)C#N)c1    0

q: Would you mind telling me what drug sensitivity score value was observed for Cn1c(=O)n(-c2ccc(C(C)(C)C#N)cc2)c2c3cc(-c4cnc5ccccc5c4)ccc3ncc21 ?
a: 0

q: Would you mind telling me what drug sensitivity score value was observed for CC(C)c1c(C(=O)Nc2ccccc2)c(-c2ccccc2)c(-c2ccc(F)cc2)n1CC[C@@H](O)C[C@@H](O)CC(=O)O ?
a: 8.07
